molecular target: UniProt Q5BJF2
Sequence (Q5BJF2 whole entry): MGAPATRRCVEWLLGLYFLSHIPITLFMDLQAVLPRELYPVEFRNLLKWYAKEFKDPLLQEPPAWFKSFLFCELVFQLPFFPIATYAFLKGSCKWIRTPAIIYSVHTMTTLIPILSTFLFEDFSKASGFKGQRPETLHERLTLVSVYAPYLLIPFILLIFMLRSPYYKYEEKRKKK
Endpoint: IC50

INSERT INTO results (compound, endpoint, measured_value) VALUES
  ('CC(NCCC(c1ccccc1)c1ccccc1)c1ccccc1 (stereo not shown)', 'IC50', '730 to 850 nM');

* * *

target: sigma-1 receptors (Homo sapiens)
Sequence (Q99720 whole entry): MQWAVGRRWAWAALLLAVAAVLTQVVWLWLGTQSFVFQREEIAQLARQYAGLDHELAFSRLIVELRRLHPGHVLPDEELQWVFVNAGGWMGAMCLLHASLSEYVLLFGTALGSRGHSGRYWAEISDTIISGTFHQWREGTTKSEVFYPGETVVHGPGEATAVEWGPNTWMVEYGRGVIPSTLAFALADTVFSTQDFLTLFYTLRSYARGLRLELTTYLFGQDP
pIC50: −log10 of the molar value.
Endpoint: pIC50

INSERT INTO assay_data (compound, endpoint, measured_value) VALUES
  ('CC(NCCC(c1ccccc1)c1ccccc1)c1ccccc1 (stereo not shown)', 'pIC50', '7.74 to 7.85');
